- tgt: Sphingosine 1-phosphate receptor 1 (Homo sapiens, UniProt P21453)
- Sequence (P21453 whole entry): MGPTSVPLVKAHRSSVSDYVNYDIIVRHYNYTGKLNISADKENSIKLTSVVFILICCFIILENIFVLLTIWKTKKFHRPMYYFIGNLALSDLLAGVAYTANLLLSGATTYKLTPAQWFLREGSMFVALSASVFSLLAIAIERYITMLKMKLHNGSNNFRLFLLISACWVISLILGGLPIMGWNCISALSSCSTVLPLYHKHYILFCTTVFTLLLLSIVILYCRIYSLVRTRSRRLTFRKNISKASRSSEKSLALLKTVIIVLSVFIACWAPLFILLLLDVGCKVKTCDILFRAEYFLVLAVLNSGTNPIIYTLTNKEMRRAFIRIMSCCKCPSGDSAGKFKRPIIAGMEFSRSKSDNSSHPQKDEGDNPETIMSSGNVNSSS
- assay procedure: potentiators of S1P1 agonist response, dose response, cell-based, potentiator mode, 60K MLSMR set (AID 466)
value type: pEC50
pEC50 is defined as minus the log10 of a concentration measured in mol/L.

Solved cases below.
CCOC(=O)c1cnc(-n2nc(C)cc2C)nc1NC1CCCCC1
5.23
O=S1(=O)Nc2c(ccc3cccnc23)-c2ccccc21
5.49
Cc1nc2ccc3nc(NC(=O)C4COc5ccccc5O4)sc3c2s1 (stereo not drawn) [MLS000100909]
5.40

input: What does the data say about its pEC50? Entry: `O=C(c1cc(-c2ccco2)on1)N1CCN(C(c2ccccc2)c2ccccc2)CC1`
output: 5.24

input: What does the data say about its pEC50? Entry: `Cc1cc(C)n2nc(SCC(=O)c3cc(C)n(-c4cc(C)on4)c3C)nc2n1`
output: 5.25

input: What does the data say about its pEC50? Entry: Cc1ccc2oc(-c3ccc(NC(=O)c4cccnc4)cc3)nc2c1 [MLS000068975]
output: 5.55

input: What does the data say about its pEC50? Entry: CCCCn1ccnc1C(=O)c1cccc(S(=O)(=O)N2c3ccccc3CC2C)c1 (stereo not drawn)
output: 5.04
